- condition-details: in isopropanol, 303.15 K
reported-property: solubility (mole fraction)
Note: the reply should be a number with no unit written.

Task: Specify measured solubility (mole fraction) for `Cc1cccc([N+](=O)[O-])c1N` .
Output: 0.0249

---

- condition-details: in ethanol, 300.65 K
reported-property: solubility (mole fraction)

Task: Name the recorded solubility (mole fraction) of the item `Cc1cccc([N+](=O)[O-])c1N` in your answer.
Output: 0.0256

---

- condition-details: in ethyl acetate, 310.65 K
reported-property: solubility (mole fraction)
// no unit string in output, number only

Task: Return value of solubility (mole fraction) for input `Cc1cccc([N+](=O)[O-])c1N` , no commentary.
Output: 0.246

---

- condition-details: in isopropanol, 298.15 K
reported-property: solubility (mole fraction)
The answer should be a number; do not append a unit.

Task: Please report the measured solubility (mole fraction) for `Cc1cccc([N+](=O)[O-])c1N`
Output: 0.0202

---

- condition-details: in ethyl acetate, 280.65 K
reported-property: solubility (mole fraction)

Task: Output solubility (mole fraction) of `Cc1cccc([N+](=O)[O-])c1N`
Output: 0.0924

---

- condition-details: in ethanol, 308.15 K
reported-property: solubility (mole fraction)
Please state the value as a number alone, without comment.

Task: Return reported solubility (mole fraction). Input molecule: `Cc1cccc([N+](=O)[O-])c1N`
Output: 0.0346

---

- condition-details: in 1,4-dioxane, 313.15 K
reported-property: solubility (mole fraction)
Please reply with the value in numeric form only.

Task: // Input: `Cc1cccc([N+](=O)[O-])c1N` . Output its solubility (mole fraction) only.
Output: 0.339

---

- condition-details: in methanol, 283.15 K
reported-property: solubility (mole fraction)
Give a plain numeric answer without units written out.

Task: Give the reported solubility (mole fraction) for this molecule. `Cc1cccc([N+](=O)[O-])c1N`
Output: 0.00916

---

- condition-details: in ethanol, 295.65 K
reported-property: solubility (mole fraction)
Number only, please.

Task: // Input: `Cc1cccc([N+](=O)[O-])c1N` . Output its solubility (mole fraction) only.
Output: 0.021

---

- condition-details: in cyclohexane, 290.65 K
reported-property: solubility (mole fraction)
Please state the value as a number alone, without comment.

Task: Supply solubility (mole fraction) value. Item: `Cc1cccc([N+](=O)[O-])c1N`
Output: 0.00158

---

- condition-details: in acetone, 285.65 K
reported-property: solubility (mole fraction)
Lab note: record the figure alone, no unit after it.

Task: In one line, give reported solubility (mole fraction) of the entry `Cc1cccc([N+](=O)[O-])c1N` .
Output: 0.142

---

- condition-details: in n-propanol, 283.15 K
reported-property: solubility (mole fraction)
Lab note: write the figure by itself, no unit.

Task: Please give measured solubility (mole fraction) of the following entry: `Cc1cccc([N+](=O)[O-])c1N`
Output: 0.0133

---

- condition-details: in toluene, 283.15 K
reported-property: solubility (mole fraction)
Enter the number alone.

Task: Give the value of solubility (mole fraction) reported for the following: `Cc1cccc([N+](=O)[O-])c1N`
Output: 0.0301

---

- condition-details: in methanol, 300.65 K
reported-property: solubility (mole fraction)

Task: Input `Cc1cccc([N+](=O)[O-])c1N` , output reported solubility (mole fraction).
Output: 0.0192
